protocol text: Pharmacokinetics in the vitreous body after intravitreal injection
Format: in vivo, Sprague Dawley (SD) male rats
experimental parameters: male, Sprague Dawley (SD), vitreous body, 50 µg; rat, single intravitreal 10 μL, peptide 5 mg/ml
Ends that are not written are not given here.
readout type: Cmax (µg/mL)

# substance, reported
data = [
    ("GGNQWFI [anti-Flt1 peptide, GGNQWFI]", 800),
]

---

protocol text: Pharmacokinetics in the vitreous body after intravitreal injection
Assay type: in vivo, Sprague Dawley (SD) male rats
experimental parameters: male, Sprague Dawley (SD), vitreous body, 50 µg; rat, single intravitreal 10 μL, peptide 5 mg/ml
Ends that are not written are not given here.

# substance, Tmax / h
data = [
    ("GGNQWFI [anti-Flt1 peptide, GGNQWFI]", 24),
]
